# Tested on: D54 LucT luciferase reporter counterscreen, luminescence, 24 h
# test description: reporter signal increase, D54 LucT cells – cell-based, luminescence, cherry pick, counter-screen for N-linked glycosylation inhibitor project, dose response (AID 624404)
Records with an inconclusive call do not appear.
Quick list: AC35 per entry.
measured quantity: AC35

- compound: "COc1ccc2c(c1)[C@H]1[C@H](CO2)[C@H](c2ccccc2)[C@]2(C)C(=O)Nc3cc(F)c(F)cc3C(=O)N12"
  target under test: "D54 LucT luciferase reporter counterscreen, luminescence, 24 h"
  reported result: "0.469 µM"
- compound: "CC1CN(C(=O)c2ccc(COc3ccc(C(C)C)cc3)o2)CC(C)O1 (stereo not given)"
  target under test: "D54 LucT luciferase reporter counterscreen, luminescence, 24 h"
  reported result: "< 0.0012 µM"
- compound: "COc1cc2[nH]c(C(=O)Nc3ccc(F)cc3)cc2c(OC)c1OC"
  target under test: "D54 LucT luciferase reporter counterscreen, luminescence, 24 h"
  reported result: "0.0982 µM"
- compound: "Cc1cc(C)cc(N=Cc2ccc([N+](=O)[O-])s2)c1"
  target under test: "D54 LucT luciferase reporter counterscreen, luminescence, 24 h"
  reported result: "0.724 µM"
- compound: "C#CCCOC(=O)N1C2=NC(C(=O)OC)=C(C(=O)OC)[C@@H]3N(C)c4ccccc4[C@]23C[C@H]1C(=O)OC"
  target under test: "D54 LucT luciferase reporter counterscreen, luminescence, 24 h"
  reported result: "0.934 µM"
- compound: "COc1cc(-c2cc3nc(NCCc4ccncc4)ccn3n2)cc(OC)c1OC"
  target under test: "D54 LucT luciferase reporter counterscreen, luminescence, 24 h"
  reported result: "0.806 µM"
- compound: "Clc1ccc(CSc2cnnc3ccccc23)cc1Cl"
  target under test: "D54 LucT luciferase reporter counterscreen, luminescence, 24 h"
  reported result: "2.09 µM"
- compound: "CCN1C(=O)c2cccc3c(S(=O)(=O)Nc4ccccn4)ccc1c23"
  target under test: "D54 LucT luciferase reporter counterscreen, luminescence, 24 h"
  reported result: "1.86 µM"
- compound: "Cc1cc(=O)oc2cc(NC(=O)c3cccc(S(C)(=O)=O)c3)ccc12"
  target under test: "D54 LucT luciferase reporter counterscreen, luminescence, 24 h"
  reported result: "0.526 µM"
- compound: "Cc1cnc(NC(=O)C2CC(=O)N(c3cccc(Cl)c3)C2)s1 (stereo not given)"
  target under test: "D54 LucT luciferase reporter counterscreen, luminescence, 24 h"
  reported result: "1.6 µM"
- compound: "Cc1ccc(S(=O)(=O)N(C)C[C@H]2Oc3ccc(NC(=O)C4CCCCC4)cc3C(=O)N([C@H](C)CO)C[C@H]2C)cc1"
  target under test: "D54 LucT luciferase reporter counterscreen, luminescence, 24 h"
  reported result: "0.555 µM"
- compound: "C[C@@]12C(=O)Nc3cc(Cl)ccc3C(=O)N1[C@H]1c3cc(Br)ccc3OC[C@@H]1[C@@H]2c1ccccc1"
  target under test: "D54 LucT luciferase reporter counterscreen, luminescence, 24 h"
  reported result: "2.55 µM"
- compound: "COc1ccc(/C=C2\\CC/C(=C\\c3ccc(OC)c(OC)c3)C2=O)cc1OC"
  target under test: "D54 LucT luciferase reporter counterscreen, luminescence, 24 h"
  reported result: "0.155 µM"
- compound: "COc1cccc(NC(=O)CCCOc2cc(=O)n(C)c3ccccc23)c1"
  target under test: "D54 LucT luciferase reporter counterscreen, luminescence, 24 h"
  reported result: "4.63 µM"
- compound: "O=C(COc1ccccc1)Nc1cccc(-c2cn3cccnc3n2)c1"
  target under test: "D54 LucT luciferase reporter counterscreen, luminescence, 24 h"
  reported result: "1.08 µM"
- compound: "Cc1ccc2c(c1)C(=O)N1[C@H]3c4cc(Br)ccc4OC[C@@H]3[C@H](c3ccccc3)[C@]1(C)C(=O)N2"
  target under test: "D54 LucT luciferase reporter counterscreen, luminescence, 24 h"
  reported result: "0.241 µM"
- compound: "O=C1NC[C@H](Cc2ccccc2)N(C[C@H]2CCCN2C[C@H](Cc2ccccc2)N2C[C@H](Cc3ccc(O)cc3)N(CCc3ccccc3)C(=O)C2=O)C1=O"
  target under test: "D54 LucT luciferase reporter counterscreen, luminescence, 24 h"
  reported result: "3.77 µM"
- compound: "Cc1ccc(C(=O)N2CCC(C(=O)Nc3cccc([N+](=O)[O-])c3)CC2)cc1"
  target under test: "D54 LucT luciferase reporter counterscreen, luminescence, 24 h"
  reported result: "1.7 µM"
- compound: "O=C1NC(=O)N(Cc2ccco2)C(=O)/C1=C/C=C/c1ccco1"
  target under test: "D54 LucT luciferase reporter counterscreen, luminescence, 24 h"
  reported result: "12.3 µM"
- compound: "CCc1ccc(CNC(=O)Cc2ccc(NC(=O)C3=C(C)OCCS3)cc2)cc1"
  target under test: "D54 LucT luciferase reporter counterscreen, luminescence, 24 h"
  reported result: "0.32 µM"

Just for reference, PubChem BioAssay AID624404 is where these values come from.
